- System: MS2 coat protein
- experiment.description: apparent KD of MS2 coat protein; designed switch direction (-1 OFF switch, 1 ON switch): -1; higher = weaker reporter binding
- run.parameters: input ligand: FMN 200 uM
Classify as follows. Reported apparent KD of MS2 coat protein greater than or equal to 30 nM: 1. Reported apparent KD of MS2 coat protein below: -1.

1) UGGCCACAUGAGGAUCACCCAUGUCAGGAUAUCGGAUAUAUUGUGGUUUUAAGACCAACGAGAAGGGACGGGUC [Eternabot (L1) Solution 9] (Eterna round: R97, puzzle: Exclusion 1)	1
2) AAGCCACAUGAGGAUCACCCAUGUUAGGAUAUACGCAUGCAGACACGCACGGAUGCAAGUAGAAGGAACCAUGC [Design #5] (Eterna round: R97, puzzle: Exclusion 1)	-1
3) GCUGGUCGAGGAUAUGCAUAUACUGGAUACAGUGGAAGGUCACAUGAGGAUCACCCAUGUAGAAGGCGACUAGC [EX2 #37] (Eterna round: R97, puzzle: Exclusion 2)	1
4) CCAGCGUAUGUGAGGAUAUGCUGGUCCUUGGAUCAGCAGAAGGCACAUGAGGAUCACCCAUGUGGAAACGUUGG [Mod of JL 1 - Jieux - Brourd's mod of Exclusion 4] (Eterna round: R97, puzzle: Brourd's mod of Exclusion 4)	1
5) ACUUAUGCGGAGGAUAUUUAACGUAGCGAAAGUAAAGAAGGCCGAACAUGAGGAUCACCCAUGUGGAGGUGUAA [Eternabot (L1) Solution 24] (Eterna round: R97, puzzle: Exclusion 6)	1
6) AGGCCCGAUGGAGGAUAUGUAAGUAAUUGAGAUACUUCAUGUCACAUGAGGAUCACCCAUGUACGGCAGAAGGCCGACGGAGCC [Raanoner] (Eterna round: R96, puzzle: Exclusion NG 2)	-1
7) GCAAGCUUUUCGAUCCUCGACAUGAGGAUCACCCAUGUGCUCGAAUUGUUUAGUACUAUCACGAAAGUGAUAGUACA [Sensor, turn off variant 1 v.3] (Eterna round: R97, puzzle: Sensor, turn-off variant 1)	1
8) GCGGAUUAUGUAGGAUAUCGGUCAGUUUCUGAUCGAGAAGGACAUGAGGAUCACCCAUGUAAAUUGCUCGCUUUGUGAGCCCGC [JL ENG1 3.63] (Eterna round: R96, puzzle: Exclusion NG 1)	1
9) UGAGCUGAAGGAUAUGCGUAAUCACGGUGACGUGUAGAUCUACAUGAGGAUCACCCAUGUAGAAGGUCAGUUCU [Mat - Exclusion 2 - JL Mod - D33] (Eterna round: R97, puzzle: Exclusion 2)	-1
10) AGGAUACAUGAGGAUCACCCAUGUGAGGAUAUACGAUAGCUCAGGAAGAGAUUAGUAUGUAGAAGGUGCGGGUG [Eternabot (L1) Solution 49] (Eterna round: R97, puzzle: Exclusion 1)	1
11) UUUGUUUAUGUAGGAUAUGCCUGGCGUGCCUUCGCAGAAGGACAUGAGGAUCACCCAUGUAUUGCGGUCUGCGUUCAGAUCGCC [salish99_ExNG1_r4_028] (Eterna round: R96, puzzle: Exclusion NG 1)	-1
12) GUGAGUGGUCAGGAUAUGCUGUACAAAAGUACAGCAGAAGGGAUUACAUGAGGAUCACCCAUGUUUACUUCAUG [Omei Ex6 B4] (Eterna round: R97, puzzle: Exclusion 6)	1
